# test: A qHTS for Small Molecule Inhibitors of Shiga Toxin; also: 0% is about no effect
# stated_conditions: Vero cells, Shiga toxin protein synthesis inhibition reporter; at 38.7 µM
Among all 290,000 compounds or so, about 27,000 (9.3%) were called active. Rule as the data show it: active = inhibition mostly above about 28% (no sharp cut-off); inactive = mostly below about 43%. Shown is part of a subset that was picked to be rich in actives.
Assign a class; possible classes are active, inactive

compound	assigned_class
COc1ccc(C2/C(=C(/O)c3ccc4c(c3)CC(C)O4)C(=O)C(=O)N2Cc2ccncc2)cc1 (centres undefined)	inactive
O=C(c1ccc(S(=O)(=O)N2CCCC2)cc1)N1CCN(c2ccccc2F)CC1	inactive
O=C(Nc1ccc2c(c1)CCC2)c1cccc(S(=O)(=O)Nc2ccccc2Cl)c1	inactive

Which result was noted for this compound in the test: COc1ccccc1/C=C/C(=O)NC(=S)N1CCOCC1
active

* * *

# test: A qHTS for Small Molecule Inhibitors of Shiga Toxin; also: 0% is about no effect
# stated_conditions: Vero cells, Shiga toxin protein synthesis inhibition reporter; at 38.7 µM
The campaign covered roughly 290,000 compounds. About 27,000 (9.3%) were called active. Cut-off read from the data, not from the text of the source: active = inhibition mostly above about 28% (no sharp cut-off); inactive = mostly below about 43%. The entries come from a sample that favours actives as a whole.
Give your call using only these classes: active, inactive

compound	assigned_class
O=C(CSc1nc2ccccc2c(=O)[nH]1)Nc1nc(-c2ccc(Br)cc2)cs1	inactive
Cc1ccc(-n2nc3c(=O)n(C(C)C(=O)NCc4ccc5c(c4)OCO5)nc(C)c3c2C)cc1 (stereo not drawn)	inactive
Cc1ccc(C(=O)NCCNC(=O)c2cnccn2)cc1	inactive
COc1cc(C(=O)N2CCN(C)CC2)cc(OC)c1OC	inactive
O=C(CSc1n[nH]c(=O)n1-c1ccccc1)Nc1ccccc1C(F)(F)F	inactive
O=C1CN(Cc2ccccc2)S(=O)(=O)c2ccccc21	inactive
CCOc1ccc(OCC)c(NC(=O)CCS(=O)(=O)c2ccc(C)cc2)c1	inactive
CCCCn1c(-c2cccc(C)c2)nc2cc3[nH]c(=O)c(C(C)C)nc3cc21	inactive

Look up the recorded call for CCC(=O)N1CCc2cc(S(=O)(=O)CCC(=O)N3CCN(c4ccccc4F)CC3)ccc21 in this test.
inactive

And the next one, COC(=O)c1c(NC(C)=O)sc(C(=O)Nc2ccccc2OC)c1C ?
inactive

Do the same for COc1ccc(CCNC(=O)C2CCCN(S(=O)(=O)c3ccc(OC)cc3)C2)cc1 (stereo not drawn) please
inactive

Then what about the compound CCN(CC)c1ccc(C(=O)N/N=C/c2ccc(N3CCOCC3)cc2)cc1 ?
inactive

Same thing, different compound: CCN(CC)c1ccc(/C=N/Nc2nc(C)cc(C)n2)c(O)c1
active

* * *

# test: A qHTS for Small Molecule Inhibitors of Shiga Toxin; also: 0% is about no effect
# stated_conditions: Vero cells, Shiga toxin protein synthesis inhibition reporter; at 38.7 µM, stronger effect = higher value
About 27,000 (9.3%) of roughly 290,000 compounds were called active. This excerpt belongs to a sample that is enriched for actives.
outcome_measure: inhibition (%)
Write the number in % without appending the unit.

compound	test_result
O=C(N/N=C/c1c(Cl)[nH]c2ccccc12)c1sc2ccccc2c1Cl	-0.233
COc1cc2ccccc2cc1C(=O)N(CCN(C)C)c1nc2c(F)cccc2s1	-10.4
COc1ccc(N2C(=O)C3C(C2=O)C(C(=O)c2ccccc2)N2CCCC32)cc1 (centres undefined)	19.2

Item COCCn1c(SCC(=O)Nc2cc(Cl)ccc2OC)nc2c(c1=O)SC(C)C2 (centres undefined) has what recorded inhibition?
4.22

Provenance of the data: PubChem BioAssay AID2315
